Test system: XooFtsZ
Type: binding, Xanthomonas oryzae pv. oryzae
CONDITION DESCRIPTION: pH 7.4
Would you kindly list Stern–Volmer quenching constant Ksv for each of these molecules?
Your answer should be a plain number; it is taken to be in M⁻¹.

response.value for COc1cc([C@@H]2c3cc4c(cc3[C@H](O)[C@H]3COC(=O)[C@H]23)OCO4)cc(OC)c1OC (field: Stern–Volmer quenching constant Ksv) = 2203

response.value for COc1cc([C@@H]2c3cc4c(cc3[C@@H](O)[C@H]3COC(=O)[C@H]23)OCO4)cc(OC)c1O [DMEP, 4′-demethylepipodophyllotoxin] (field: Stern–Volmer quenching constant Ksv) = 7593

response.value for COc1cc(C2c3cc4c(cc3C(O)C3COC(=O)C23)OCO4)cc(OC)c1O (stereo not shown) (field: Stern–Volmer quenching constant Ksv) = 1757

response.value for COc1cc([C@@H]2c3cc4c(cc3[C@H](O)[C@H]3COC(=O)[C@@H]23)OCO4)cc(OC)c1OC (field: Stern–Volmer quenching constant Ksv) = 3603

Data origin: paper PMC9408963
